Tested on: Plasmodium falciparum
ASSAY NAME: Hit confirmation in dose-response curve in NF54 nanoGlo assay, at 72h
Assay type: functional, organism-based, Erythrocyte
Parameters: timepoint 72 hour
EXPERIMENTAL PARAMETERS: Plasmodium falciparum, NF54, Erythrocyte, 72 h
Catalogue of IC50 values

| MOLECULE | ASSAYED SYSTEM | LIMIT SIGN | IC50, nM |
| --- | --- | --- | --- |
| CC(CC1OCC(C[N+]2(Cc3ccccc3)CCCCC2)O1)CC(C)(C)C (stereo unspecified) | Plasmodium falciparum | = | 912 |
| CC(C)CC[C@@H](CCNC1CCN(C)CC1)c1ccc(Cl)cc1 | Plasmodium falciparum | = | 1660 |
| Cn1c(=O)c2c(-c3ccc(Cl)cc3)n(-c3cccc4cccc(N)c34)cc2n(C)c1=O | Plasmodium falciparum | > | 10000 |
| Cc1oc(-c2ccn[nH]2)cc1S(=O)(=O)Nc1cccc(Cl)c1 | Plasmodium falciparum | = | 1480 |
| Cc1ccc(C(=O)Nc2cc3c4c(c2)C2CCCC2CN4CC2CCCC32)cc1 (stereo unspecified) | Plasmodium falciparum | = | 2400 |
| Cn1c(Cc2n[n+]3c(-c4ccccc4)cc(-c4ccccc4)nc3n2C)n[n+]2c(-c3ccccc3)cc(-c3ccccc3)nc12 | Plasmodium falciparum | = | 257 |
| CCOc1cc(CNc2cccc3ccccc23)cc(Br)c1OCC(=O)NC(C)(C)C | Plasmodium falciparum | > | 10000 |
| CC(C)N1C(=O)NC(=O)C2(Cc3ccccc3N3CCN(Cc4ccccc4)CC32)C1=O (stereo unspecified) | Plasmodium falciparum | = | 3980 |
| COc1cccc(NC(=O)Cn2c(C)ccc(NS(=O)(=O)c3ccc(C)cc3)c2=O)c1 | Plasmodium falciparum | = | 3240 |
| CN1CCC(N2CCN(Cc3ccc4cc(O)ccc4c3)CC2)CC1 | Plasmodium falciparum | = | 1660 |
| Cc1ccc(Cn2c(=O)c(C(=O)NCc3ccc4c(c3)OCO4)nn(-c3ccc(C(C)C)cc3)c2=O)cc1 | Plasmodium falciparum | = | 2690 |
| CCOC(=O)CCn1cc(F)c(=O)[nH]c1=O | Plasmodium falciparum | = | 26.9 |
| Cc1c(C)c2ccc(NC(=O)c3cc4ccccc4o3)cc2[nH]c1=O | Plasmodium falciparum | = | 1660 |
| Cc1cc(=O)[nH]c(-n2nc(C3CC3)cc2NC(=O)C(c2ccccc2)c2ccccc2)n1 | Plasmodium falciparum | = | 955 |
| Cc1cccc(CN(Cc2cccc(C)n2)C[C@H]2CCCCO2)n1 | Plasmodium falciparum | = | 229 |
| CC(C)[C@@H]1CC[C@H](C)C[C@H]1OC(=O)Cn1cc(-c2ccc(Cl)cc2)[n+]2c1CCC2 | Plasmodium falciparum | = | 955 |
| O=C1NC(c2ccccc2)=NC12CCN(Cc1c(F)cccc1F)CC2 | Plasmodium falciparum | = | 2090 |
| Cc1cc(NC(=O)C(=O)NC2CC(C)CC(C)(C)C2)n(-c2nc3c(c(=O)[nH]2)CCC3)n1 (stereo unspecified) | Plasmodium falciparum | = | 1150 |
| CN1CC[C@H](CN(C)Cc2ccc3cc(O)ccc3c2)C1 | Plasmodium falciparum | = | 1780 |
| COc1ccc(C(=O)C[n+]2cc(-c3ccc(OC)cc3)n3c2CCCC3)cc1 | Plasmodium falciparum | = | 1410 |
| COc1ccccc1CN1COc2cc3c(cc2C1)OCO3 | Plasmodium falciparum | = | 1580 |

----------
System: Plasmodium falciparum
ASSAY NAME: Hit confirmation in dose-response curve in NF54 pLDH assay, at 72h
Assay type: functional, organism-based
Parameters: timepoint 72 hour
EXPERIMENTAL PARAMETERS: NF54, Erythrocyte
PARAMETER: log10 of IC50 (log10 of the value in µM)

| MOLECULE | MEASURED NUMBER |
| --- | --- |
| CC(C)Nc1nc2nonc2n2cnnc12 | 0.64 |
| COC[C@H](NCCc1cc(F)cc2c1OCOC2)C1CC1 | -0.05 |
| Cn1cncc1CC(=O)Nc1ccnc(NC(=O)OC(C)(C)C)c1 | 0.58 |
| COc1ccc(C2=CN(CC(=O)c3ccc(Cl)cc3)C3=CCCCCN23)cc1 | 0.47 |
| NCc1cccc(C(=O)N2CCc3cc4ccc3[C@@H]2c2cccc(c2)OCCCNC(=O)c2cc(ccc2O)O4)c1 | 0.84 |
| CCCN1C(=O)c2ccccc2N2C(=O)CC[C@@]12C(=O)Nc1ccc(OC)cc1 | 0.54 |
| CCn1cc(-c2nc(-c3ccccc3C)no2)c(=O)c2cc(F)c(N3CCCCC3)cc21 | 1.04 |
| CCOC(=O)c1cn(CC)c2cc(NC3CCCCC3)c(F)cc2c1=O | 0.36 |
| COc1ccc(CNCCC2C(C)CN(C)C(C)C2Cc2ccccc2)cc1 (stereo unspecified) | 0.56 |
| C[C@H]1CCN(c2nc(-c3ccccn3)nc3c2CCC3)C1 | 0.11 |
| CCC[N+]1(CC#C[C@@](O)(c2ccccc2)C2(C)CCCC2)CCCCC1 | 0.54 |
| Cc1cc(=O)c(OCC(=O)N2CCN([C@@H](c3ccccc3)c3ccc(Cl)cc3)CC2)c[nH]1 | 0.70 |
| Cc1ccc(S(=O)(=O)Nc2c(S(=O)(=O)c3ccc(C)cc3)c3nc4ccccc4nc3n2CCC(C)C)cc1 | 0.92 |
| COc1ccc([C@H](NC(=O)CCc2ccccc2)c2c(O)ccc3ccccc23)cc1 | 0.97 |
| Cc1c(F)cccc1NC(=O)N1CCN(C2=CC3=N[C@@H](C)CN3C=N2)CC1 | 0.43 |
| O=C(CN1C=CCC=C1c1nc(-c2ccc(Br)cc2)cs1)c1ccccc1 | 0.54 |
| COc1ccc(S(=O)(=O)N2CCC(c3cc(N)on3)CC2)cc1Cl | 0.80 |
| CC(C)c1ccc2ncnc(N[C@H]3CCc4[nH]cnc4C3)c2c1 | 0.00 |
| Clc1ccc(COc2ccc(Cl)cc2CNCCCn2ccnc2)c(Cl)c1 | 0.10 |
| FC(F)Oc1ccc(-c2c[n+](-c3cccc(C(F)(F)F)c3)c3n2CCCCC3)cc1 | 0.33 |
| O=C(Nc1cccc2cccnc12)c1ccccn1 | -0.06 |
| O[C@@]1(CN2CCC(COc3ccc4c(c3)CCC4)CC2)CCCNC1 | 0.54 |
| CCCOc1cccc2c(NC3CCN(CCOC)CC3)ccnc12 | 0.35 |
| Cc1ccc(NC(=O)c2c(C)nc3sc(C(=O)NCc4ccccc4)c(N)c3c2-c2ccccc2Cl)c(C)c1 | 0.15 |
| COc1ccc(Nc2nnc(-c3ccc(NC(=O)C(=O)NCCCn4ccnc4)cc3)s2)cc1 | 0.79 |
| CCOc1ccc(C2c3[nH]c4ccccc4c3C[C@H]3C(=O)N(C4CCN(Cc5ccccc5)CC4)CC(=O)N23)cc1OC (stereo partly specified) | 0.71 |
| COc1ccccc1-n1c(=O)n(C2CCCC2)c(=O)c2c1ncn2Cc1ccccc1Cl | 1.00 |
| CC(C)c1cc(=O)[nH]c(-n2nc(C3CC3)cc2NC(=O)Cc2ccc(Cl)cc2)n1 | 0.89 |
| CN1CCC(n2ncc3[nH]c(-c4ccc(C(F)(F)F)cc4)nc32)CC1 | 0.18 |
| COc1cccc(S(=O)(=O)N2CCCN(Cc3ccncc3)[C@H](c3ccccc3)CC(=O)NCC2)c1 | 0.51 |
| N#Cc1cc(S(=O)(=O)NCCN(C2CC2)S(=O)(=O)c2ccc(Cl)c(C#N)c2)ccc1Cl | 0.52 |

----------
ASSAY NAME: Hit confirmation in dose-response curve in HepG2 cytotoxicity assay, at 72h
Format: toxicity, cell-based
Design: timepoint 72 hour
EXPERIMENTAL PARAMETERS: human, HepG2 cells
Catalogue of IC50 at 72 h values
PARAMETER: IC50 at 72 h

| COMPOUND | PARAMETER | RESULT |
| --- | --- | --- |
| CC(C)CC[C@@H](CCNC1CCN(C)CC1)c1ccc(Cl)cc1 | IC50 at 72 h | > 10 µM |
| O=C(Cc1ccc(N(Cc2cccc(F)c2)C(=O)C2CCCC2)cc1)NCCN1CCCCC1 | IC50 at 72 h | > 10 µM |
| Nc1nc(N2CCN(c3ccc(F)c(Cl)c3)CC2)cc([C@H]2C[C@@H](N)C2)n1 | IC50 at 72 h | > 10 µM |
| CC1CC(Nc2ncnc3cc(Br)ccc23)CCN1C (stereo not given) | IC50 at 72 h | > 10 µM |
| Nc1ncc(C(=O)N2CCC3(CCCCCC3)C2)s1 | IC50 at 72 h | > 10 µM |
| Cc1ccc2c(c1)c1c(n2S(=O)(=O)c2ccc(C(C)(C)C)cc2)CCCN(C)C1 | IC50 at 72 h | > 10 µM |
| O=C(N[C@H]1CC[C@@H]2CCC[C@@H]21)c1c[nH]c(=O)c(Cl)c1 | IC50 at 72 h | > 10 µM |
| Cc1nc2cc(NC(=O)[C@@]3(C)CCCN(C(=O)c4ccccc4)C3)ccc2o1 | IC50 at 72 h | > 10 µM |
| C[N+]1(CCCC(=O)c2ccc3c(c2)OCCO3)CCC(c2ccccc2)C1 (stereo not given) | IC50 at 72 h | > 10 µM |
| Clc1ccc(Cn2cc(CNCCCn3ccnc3)c3ccccc32)c(Cl)c1 | IC50 at 72 h | > 10 µM |
